# Target system: Factor Xa (Homo sapiens, UniProt P00742)
# Construct: TMPRSS2; Matriptase; Hepsin; HGFA; Thrombin; Factor Xa
# Sequence (P00742 235-488 limits assumed): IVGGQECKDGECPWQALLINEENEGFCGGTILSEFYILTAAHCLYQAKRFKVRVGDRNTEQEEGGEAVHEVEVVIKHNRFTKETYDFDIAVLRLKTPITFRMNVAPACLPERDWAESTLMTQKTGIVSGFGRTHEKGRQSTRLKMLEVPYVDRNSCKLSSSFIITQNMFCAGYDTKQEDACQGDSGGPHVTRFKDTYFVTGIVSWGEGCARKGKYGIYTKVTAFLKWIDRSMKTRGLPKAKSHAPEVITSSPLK
# Sequence (P00742 41-179 partner limits assumed): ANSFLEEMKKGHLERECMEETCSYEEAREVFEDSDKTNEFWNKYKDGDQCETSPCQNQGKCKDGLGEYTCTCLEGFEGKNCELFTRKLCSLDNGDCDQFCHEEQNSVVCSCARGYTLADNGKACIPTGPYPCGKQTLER
# Assay comment: Fluorogenic assay, Factor Xa
# Assay type: biochemical
# Setup conditions: read-out: Factor Xa IC50
Numbered stars: 1 amine (or outer) side, 2 acyl side, 3 side chain; on linkers, the order of the positions; unused ones are H or OH. Square brackets hold non-standard residues; d marks the D form. Peptide text beside a SMILES is read from it. X1 = N=C(N)NCCC[C@H](N[*:1])C(=O)c1nc2ccc(C(=O)[*:2])cc2s1
Property name: pIC50
# pIC50 = -log10(concentration in molar units)

pIC50 reading for CC(=O)N[C@@H](CO)C(=O)N[C@@H](CCCCN)C(=O)N[C@@H](CC(C)C)C(=O)N[C@@H](CCCNC(=N)N)C(=O)c1nc2ccccc2s1 : 5.42

pIC50 reading for CC(=O)N[C@H]1CC(=O)NCCCC[C@@H](C(=O)N[C@@H](CCCNC(=N)N)C(=O)c2nc3ccccc3s2)NC(=O)[C@H](CC(C)C)NC1=O : 5.69

pIC50 reading for N=C(N)NCCC[C@H](NC(=O)[C@H](Cc1ccccc1)NC(=O)[C@H](CCC(N)=O)N1CCCCC1)C(=O)c1nc2ccccc2s1 : 5.68

pIC50 reading for CC(=O)N[C@@H](Cc1cncn1COCc1ccccc1)C(=O)N[C@@H](CCCCNC(=N)N)C(=O)N[C@@H](CCC(C)C)C(=O)N[C@@H](CCCNC(=N)N)C(=O)c1nc2ccccc2s1 : 6.75

pIC50 reading for CC(=O)N[C@@H](CCCCN)C(=O)N[C@@H](CCC(N)=O)C(=O)N[C@@H](Cc1ccccc1)C(=O)N[C@@H](CCCNC(=N)N)C(=O)c1nccs1 : 6.80

pIC50 reading for CN(C)[C@@H](CCC(N)=O)C(=O)N[C@@H](Cc1ccccc1)C(=O)N[C@@H](CCCNC(=N)N)C(=O)c1nc2ccccc2s1 : 5.48

pIC50 reading for CC(=O)N[C@@H](CO)C(=O)N[C@H](Cc1c[nH]c2ccccc12)C(=O)N[C@@H](CC(C)C)C(=O)N[C@@H](CCCNC(=N)N)C(=O)c1nc2ccc(C(=O)N[C@H](C(N)=O)C(C)C)cc2s1 [JH1114] (Ac-S[dW]L[X1]V-NH2) : 5.89

pIC50 reading for CC(=O)NCC(=O)N[C@@H](CCC(N)=O)C(=O)N[C@@H](Cc1ccccc1)C(=O)N[C@@H](CCCNC(=N)N)C(=O)c1nc2ccccc2s1 : 6.15

pIC50 reading for CC(=O)N[C@H]1Cc2ccc(cc2)OCCCC[C@@H](C(=O)N[C@@H](CCCNC(=N)N)C(=O)c2nc3ccccc3s2)NC(=O)[C@H](Cc2ccccc2)NC1=O [VD4111B] : 5.06

pIC50 reading for CN(C)[C@@H](CCC(N)=O)C(=O)N[C@@H](Cc1ccccc1)C(=O)N[C@H](CCCNC(=N)N)C(=O)c1nc2ccccc2s1 : 5.15

pIC50 reading for CC(=O)N[C@@H](CCCCNC(=N)N)C(=O)N[C@@H](CCC(C)C)C(=O)N[C@@H](CCCNC(=N)N)C(=O)c1nc2ccccc2s1 : 6.92
